Each item that follows carries a reported scatter score 0-4, MLP29, 0.004 nM.
Biological target: native mouse MET on living cells (mouse, UniProt P16056 25-1379)
Experiment: cell-based or functional assay

BINDER	UNITS TEXT	scatter score 0-4, MLP29, 0.004 nM
71G2 chimeric llama-human IgG1 mAb (antibody, V domains shown, llama VH on human IgG1 CH1-CH2-CH3, llama VL on human lambda CL) VH: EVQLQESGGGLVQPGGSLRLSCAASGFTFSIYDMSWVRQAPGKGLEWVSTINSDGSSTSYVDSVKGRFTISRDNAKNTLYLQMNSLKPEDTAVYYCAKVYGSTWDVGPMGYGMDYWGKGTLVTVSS VL: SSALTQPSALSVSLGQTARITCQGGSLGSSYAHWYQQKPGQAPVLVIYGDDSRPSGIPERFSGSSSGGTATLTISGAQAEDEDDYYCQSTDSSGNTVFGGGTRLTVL	score	0
71G12 chimeric llama-human IgG1 mAb (antibody, V domains shown, llama VH on human IgG1 CH1-CH2-CH3, llama VL on human kappa CL) VH: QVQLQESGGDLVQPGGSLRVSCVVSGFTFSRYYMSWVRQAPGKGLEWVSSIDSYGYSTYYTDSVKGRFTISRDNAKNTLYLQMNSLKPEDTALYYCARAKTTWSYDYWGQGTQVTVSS VL: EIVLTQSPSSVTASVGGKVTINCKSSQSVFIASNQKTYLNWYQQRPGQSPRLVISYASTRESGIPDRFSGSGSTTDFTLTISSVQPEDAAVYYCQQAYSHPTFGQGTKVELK	score	0
71G3 chimeric llama-human IgG1 mAb (antibody, V domains shown, llama VH on human IgG1 CH1-CH2-CH3, llama VL on human lambda CL) VH: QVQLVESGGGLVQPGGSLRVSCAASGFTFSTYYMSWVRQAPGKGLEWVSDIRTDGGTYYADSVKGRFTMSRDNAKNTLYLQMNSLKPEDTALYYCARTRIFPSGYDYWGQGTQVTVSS VL: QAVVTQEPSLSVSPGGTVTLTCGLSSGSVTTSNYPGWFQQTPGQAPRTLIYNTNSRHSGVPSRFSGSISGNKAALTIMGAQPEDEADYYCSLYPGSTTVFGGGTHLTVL	score	0
71A3 chimeric llama-human IgG1 mAb (antibody, V domains shown, llama VH on human IgG1 CH1-CH2-CH3, llama VL on human lambda CL) VH: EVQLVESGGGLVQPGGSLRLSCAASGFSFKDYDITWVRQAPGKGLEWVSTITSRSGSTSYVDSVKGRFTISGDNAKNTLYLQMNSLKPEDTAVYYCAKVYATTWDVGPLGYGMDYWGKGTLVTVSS VL: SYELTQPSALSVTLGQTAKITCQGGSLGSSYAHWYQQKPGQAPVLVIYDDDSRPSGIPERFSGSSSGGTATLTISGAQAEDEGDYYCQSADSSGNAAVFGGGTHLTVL	score	0
71C3 chimeric llama-human IgG1 mAb (antibody, V domains shown, llama VH on human IgG1 CH1-CH2-CH3, llama VL on human lambda CL) VH: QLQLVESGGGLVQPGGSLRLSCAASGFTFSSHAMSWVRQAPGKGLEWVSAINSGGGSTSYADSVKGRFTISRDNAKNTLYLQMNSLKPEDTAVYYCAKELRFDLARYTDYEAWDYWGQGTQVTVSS VL: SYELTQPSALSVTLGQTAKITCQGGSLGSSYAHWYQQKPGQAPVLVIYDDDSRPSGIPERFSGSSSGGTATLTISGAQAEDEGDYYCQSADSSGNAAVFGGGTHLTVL	score	0

Provenance of the data: patent US20210087281A1
